Data provenance is the supplement of paper PMC11150407.

- Tested on: MOLM1 and UCSD/AML1 (averaged)
- PROTOCOL: cell viability relative to DMSO control (POC); higher = less growth inhibition
- CONDITION SET: 1 µM; 72 h
Screen size: about 2,100 compounds; about 180 (8.6%) showed an effect of 50% or more. The entries come from a sample that favours strong results as a whole.
Recorded cell viability, one value per entry.
Unit % implied. Number only.

COc1cc2ncnc(Nc3ccc(F)c(Cl)c3)c2cc1NC(=O)/C=C/CN1CCCCC1; 50.9
COc1cc2c(cc1OC)-c1c(oc3cc(O)cc(O)c3c1=O)CO2; 103
COc1c(O)cc(O)cc1O; 98.8
CN(C)C/C=C/C(=O)Nc1cc2c(Nc3ccc(F)c(Cl)c3)ncnc2cc1O[C@H]1CCOC1; 52.9
COC(=O)C[C@H]1C(C)(C)[C@@H](OC(C)=O)[C@@H]2CC3=C4CC(=O)O[C@@H](c5ccoc5)[C@]4(C)CC[C@@H]3[C@@]1(C)C2=O; 103
Cc1cc(C(C)(C)CC(C)(C)C)ccc1OCCOCC[N+](C)(C)Cc1ccccc1; 88.2
O=C(Nc1ccc(OC(F)(F)F)cc1)c1sccc1NCc1ccnc2ccccc12; 64.7
COc1cc(OC)c2c(c1Cl)O[C@@]1(C(=O)CC(=O)C[C@H]1C)C2=O; 102
O=C(O)CCC(=O)OC[C@@H](NC(=O)C(Cl)Cl)[C@H](O)c1ccc([N+](=O)[O-])cc1; 40.2
O=C(N[C@H](CO)[C@H](O)c1ccc([N+](=O)[O-])cc1)C(Cl)Cl; 101

INPUT: Endpoint output: cell viability of CC(C)(C)CC(C)(C)c1ccc(OCCOCC[N+](C)(C)Cc2ccccc2)cc1 . Value?
OUTPUT: 97.1

INPUT: Endpoint output: cell viability of C=C1[C@@H]([C@@]2(C)C=CC(=O)C(C)(C)[C@@H]2CC(=O)OC)CC[C@@]2(C)[C@H](c3ccoc3)OC(=O)[C@H]3O[C@]132 . Value?
OUTPUT: 102

INPUT: Endpoint output: cell viability of COc1ccc(-c2coc3c(O)c(O)c(OC)cc3c2=O)cc1 . Value?
OUTPUT: 111

INPUT: Endpoint output: cell viability of CCCCCCCCCCCCCCCC(=O)OC[C@@H](NC(=O)C(Cl)Cl)[C@H](O)c1ccc([N+](=O)[O-])cc1 . Value?
OUTPUT: 96.2

INPUT: Endpoint output: cell viability of CC(=O)OC1CCC23CC1(C)CCC2C(C)(C)CC3OC(C)=O (centres undefined) . Value?
OUTPUT: 96.1

INPUT: Endpoint output: cell viability of C[C@H](N)C(=O)NC(Cc1ccccc1)C(=O)O (mixture of isomers) . Value?
OUTPUT: 100

INPUT: Endpoint output: cell viability of COc1c(-c2ccccc2)oc2c(ccc3occc32)c1=O . Value?
OUTPUT: 97.3

INPUT: Endpoint output: cell viability of CCOc1cc2ncc(C#N)c(Nc3ccc(F)c(Cl)c3)c2cc1NC(=O)/C=C/CN(C)C [Pelitinib (EKB-569)] . Value?
OUTPUT: 14.4

INPUT: Endpoint output: cell viability of COc1cc(-c2coc3cc(OC)c(OC)c(OC)c3c2=O)cc(OC)c1OC . Value?
OUTPUT: 96

---

- Test system: MOLM1 and UCSD/AML1 (averaged)
- PROTOCOL: cell viability relative to DMSO control (POC); higher = less growth inhibition
- CONDITION SET: 1 µM; 72 h
Out of some 2,100 compounds screened, about 180 (8.6%) showed an effect of 50% or more. Only a selection was taken, and strong results are over-represented in it overall.
READOUT NAME: cell viability (%)
Unit % implied. Number only.

These solved cases illustrate the format of a correct answer.
COC(=O)Nc1nc2cc(C(=O)c3ccccc3)ccc2[nH]1; 16.8
Cc1ccc2c(=O)c3cccc(CC(=O)O)c3oc2c1C; 99.8
CC(NC(=O)c1ccccc1/N=C/c1c(O)ccc2ccccc12)c1ccccc1 (stereo not given); 103

INPUT: What is its cell viability for MOLM1 and UCSD/AML1 (averaged)? Entry: C=C[C@@H](C1=CC(=O)C(OC)=C(OC)C1=O)c1ccccc1
OUTPUT: 8.05

INPUT: What is its cell viability for MOLM1 and UCSD/AML1 (averaged)? Entry: Cc1cc(O)c2c(c1O)C(=O)c1c(O)cc(C)c(O)c1C2=O
OUTPUT: 94.1

---

- Tested on: MOLM1 and UCSD/AML1 (averaged)
- PROTOCOL: cell viability relative to DMSO control (POC); higher = less growth inhibition
- CONDITION SET: 1 µM; 72 h
Hit rate of the full screen: of about 2,100 compounds, about 180 (8.6%) showed an effect of 50% or more. Many of the other results were omitted from the sample, so strong results are more common in it than they were.
READOUT NAME: cell viability (%)
Unit % implied. Number only.

C[C@H]1[C@H](C)CC[C@]2(C(=O)O)CC[C@]3(C)C(=CC[C@@H]4[C@@]5(C)C[C@@H](O)[C@H](O)[C@@](C)(CO)[C@@H]5[C@H](O)C[C@]43C)[C@H]12; 86.8
Cc1ccc2c(c1)CC[C@H]1CC(=O)CC[C@]21C; 104
CC1/C(=N/O)C[C@@H]2C[C@H]1C2(C)C (some centres undefined); 102

INPUT: Endpoint output: cell viability of Nc1ncnc2c1ncn2[C@@H]1O[C@H](CO)[C@@H](O)[C@@H]1O . Value?
OUTPUT: 93.9

---

Recorded cell viability, one value per entry.
- System: MOLM1 and UCSD/AML1 (averaged)
- PROTOCOL: cell viability relative to DMSO control (POC); higher = less growth inhibition
- CONDITION SET: 1 µM; 72 h
In all, about 2,100 compounds went through this assay and about 180 (8.6%) showed an effect of 50% or more. What follows is part of a selection rich in strong results, with near analogues and random picks from the rest.
Unit % implied. Number only.

CC(=O)OC/C=C(\C)CC/C=C(\C)CC/C=C(\C)CC/C=C(\C)CC/C=C(\C)CC/C=C(\C)CC/C=C(\C)CC/C=C(\C)CCC=C(C)C; 106
NC(=O)Nc1sc(-c2ccc(F)cc2)cc1C(N)=O; 42.3
COc1cc(C)c(C(=O)O)c(O)c1; 100
COc1ccc(-c2ccc3c(N4CCOCC4)nc(N4C[C@@H](C)O[C@@H](C)C4)nc3n2)cc1CO; 30.1
Cc1cc(OC(=O)c2c(C)cc(O)cc2O)cc(O)c1C(=O)O; 103

Now take the following compound into account.
INPUT: Endpoint output: cell viability of CC(=O)Oc1cc(C)c2c(c1C=O)Oc1c(c(C)c(OC(C)=O)c3c1C(OC(C)=O)OC3=O)OC2=O (centres undefined) . Value?
OUTPUT: 106

---

- Test system: MOLM1 and UCSD/AML1 (averaged)
- PROTOCOL: cell viability relative to DMSO control (POC); higher = less growth inhibition
- CONDITION SET: 1 µM; 72 h
Structures can show the parent of a compound that is named as a salt. The campaign covered roughly 2,100 compounds. About 180 (8.6%) showed an effect of 50% or more. This is one part of a sample in which strong results are shown more often than they occur.
Could you mark each record yes if its cell viability falls strictly under 60%, and no if it equals or exceeds it?

O=C(NC1CCCCC1)NC1CCCCC1; no
O=C(O)CCCN1C(=O)c2cccc3cccc(c23)C1=O; no
COc1ccc(C(=O)O)c(O)c1OC; no
CCCCCCCCCc1ccc(OCCOCCOCCOCCOCCOCCOCCOCCOCCO)cc1; yes
COc1cccc2c1C(=O)c1c(O)c3c(c(O)c1C2=O)C[C@@](O)(C(=O)CO)C[C@@H]3O[C@H]1C[C@H](N)[C@@H](O)[C@H](C)O1 [Epirubicin Hydrochloride]; yes

INPUT: Record COC(=O)C(O)c1ccccc1 (stereo not given) : is its cell viability strictly below 60%?
OUTPUT: no

INPUT: Record C[C@]12CC[C@@H]3c4ccc(O)cc4CC[C@H]3[C@@H]1CC[C@@H]2O : is its cell viability strictly below 60%?
OUTPUT: no

INPUT: Record CC(=O)Oc1cc(OC(C)=O)c2c(c1)O[C@H](c1ccc(OC(C)=O)c(OC(C)=O)c1)[C@H](OC(C)=O)C2 : is its cell viability strictly below 60%?
OUTPUT: no

INPUT: Record Cc1[nH]c(/C=C2\C(=O)Nc3ccc(S(=O)(=O)N(C)c4cccc(Cl)c4)cc32)c(C)c1C(=O)N1CCN(C)CC1 : is its cell viability strictly below 60%?
OUTPUT: no

INPUT: Record CC1(COc2ccc3c(c2)ncn3-c2ccc3cccc(N4CCC(N)CC4)c3n2)COC1 : is its cell viability strictly below 60%?
OUTPUT: yes

INPUT: Record CCN(CC)CCNC(=O)c1c(C)[nH]c(/C=C2\C(=O)Nc3ccc(F)cc32)c1C [Sunitinib Malate (Sutent)] : is its cell viability strictly below 60%?
OUTPUT: yes
